- protocolText: Vancomycin concentration in blood/serum of human participants (blood draws)
- Type: in vivo
- reportedConditions: blood, iv, 1 gram, participant 015 (moderate-perfusion phenotype), single 1 gram IV infusion over 1 hour 40 minutes, 12 blood draws over 12 hours
observationType: Cmax

Incoming: Item CN[C@H](CC(C)C)C(=O)N[C@H]1C(=O)N[C@@H](CC(N)=O)C(=O)N[C@H]2C(=O)N[C@H]3C(=O)N[C@H](C(=O)N[C@H](C(=O)O)c4cc(O)cc(O)c4-c4cc3ccc4O)[C@H](O)c3ccc(c(Cl)c3)Oc3cc2cc(c3O[C@@H]2O[C@H](CO)[C@@H](O)[C@H](O)[C@H]2O[C@H]2C[C@](C)(N)[C@H](O)[C@H](C)O2)Oc2ccc(cc2Cl)[C@H]1O has what recorded Cmax?
Outgoing: ~30000 ng/mL
